Where do these numbers come from? They come from PubChem BioAssay AID1259407.

Tested on: CCRIS mutagenicity, Ames/micronucleus/aberration tests
assay comment: CCRIS mutagenicity studies
cond: Test System: AMES SALMONELLA TYPHIMURIUM; Strain/Indicator: TA1535; Metabolic Activation: NONE; Method: STANDARD PLATE
Active and inactive are the calls of the source. The rule behind the calls is not given here.
Outcome codes: active, inactive

| molecule | cat |
| --- | --- |
| COP(=S)(OC)Oc1ccc([N+](=O)[O-])c(C)c1 | inactive |
| C=C(C)C(=O)OCCCCCCOC(=O)C(=C)C | inactive |
| Cc1c(C)c2c(c(C)c1O)CC[C@@](C)(CCC[C@H](C)CCC[C@H](C)CCCC(C)C)O2 | inactive |
| C=CC(=O)OCC | inactive |
| CC(=O)c1cc2c(cc1C)C(C)(C)C(C)CC2(C)C (configuration not stated) | inactive |
| C=C[Si](C)(C)N[Si](C)(C)C=C | inactive |
| CC(=O)O[C@@H]1[C@@H](O)[C@H](O[C@H]2[C@H](OC(=O)[C@H]3CC[C@@H]4[C@H](C3)O[C@@]3(C[C@H](OC(=O)/C=C/c5ccccc5)[C@H](C)CO3)[C@]43CO3)O[C@H](C)[C@@H](O)[C@@H]2OC(C)=O)O[C@H](C)[C@H]1O | inactive |
| C1CCCC2OC2CC1 (configuration not stated) | inactive |
| CC(=O)CC(=O)CCC(=O)O | inactive |
| CC1(S(=O)(=O)O)CC(=O)c2ccccc2C1=O (configuration not stated) (tested in a mixture with another compound) | inactive |
| Cl/C=C/C[N+]12CN3CN(CN(C3)C1)C2 | inactive |
| OC[C@@H](O)[C@@H](O)CO | inactive |
| C1COCCO1 | inactive |
| COc1cc([C@@H]2c3cc4c(cc3[C@H](O)[C@H]3COC(=O)[C@H]23)OCO4)cc(OC)c1OC | inactive |
| CC/C(C)=N\O | inactive |
| CC(C)CCCCCCOC(=O)c1ccccc1C(=O)OCCCCCCC(C)C | inactive |
| Cc1ccc(O)c(N)c1 | inactive |
| C=C1CC[C@H]2C[C@@H]1C2(C)C | inactive |
| O=C(O)CN(CC(=O)O)CC(=O)O | inactive |
| CN(CCCC(=O)c1cccnc1)N=O | inactive |
| CS(=O)(=O)c1ccc(Cl)cc1 | inactive |
| CCC1CO1 (configuration not stated) | active |
| CC=O | inactive |
| COC/C(=C/c1ccccc1)OC | inactive |
| O=C(C(=O)c1ccccc1)c1ccccc1 | inactive |
| Oc1ccc(O)c2c(O)c3ccccc3c(O)c12 | inactive |
| CCCCCCN(N=O)/C(N)=N/[N+](=O)[O-] | active |

====

Test system: CCRIS mutagenicity, Ames/micronucleus/aberration tests
assay comment: CCRIS mutagenicity studies
cond: Test System: E.COLI; Strain/Indicator: WP2UVRA; Metabolic Activation: NONE; Method: PREINCUBATION
Activity calls are given as the source filed them. The rule behind the calls is not given here.

| chem smiles | mutagenic call |
| --- | --- |
| C1COCCO1 | inactive; negative |
| O=C(S)c1ccccc1 | inactive; negative |
| BrCCCCBr | active; positive |
| [Cl][Mn][Cl] | inactive; negative |
| Nc1cc(S(=O)(=O)O)c2cccc(S(=O)(=O)O)c2c1 | inactive; negative |
| CCN1CCNC(=O)C1=O | inactive; negative |
| Sc1ccccc1 | active; positive |

====

Test system: CCRIS mutagenicity, Ames/micronucleus/aberration tests
assay comment: CCRIS mutagenicity studies
cond: Test System: MOUSE LYMPHOMA; Strain/Indicator: L5178Y (TK+/TK-); Metabolic Activation: RAT, LIVER, S-9, AROCLOR 1254; Method: SUSPENSION/PLATE
Calls of active or inactive are those of the source. How the calls were made is not given here.

| chem smiles | system tested | mutagenic call |
| --- | --- | --- |
| CC(C)CON=O | CCRIS mutagenicity, Ames/micronucleus/aberration tests | active; positive |
| CCc1ccco1 | CCRIS mutagenicity, Ames/micronucleus/aberration tests | active; positive |

====

System: CCRIS mutagenicity, Ames/micronucleus/aberration tests
assay comment: CCRIS mutagenicity studies
cond: Test System: AMES SALMONELLA TYPHIMURIUM; Strain/Indicator: TA102; Metabolic Activation: NONE; Method: PREINCUBATION
Activity calls are given as the source filed them. The rule behind the calls is not given here.
Outcome codes: active, inactive

| compound | cat |
| --- | --- |
| CC=O | inactive |
| COc1cc(-c2cc(OC)cc(C(C)(C)C)c2O)c(O)c(C(C)(C)C)c1 | inactive |
| C[n+]1ccc(-c2ccccc2)cc1 | inactive |
| CC(=O)C=O | active |
| O=C1Nc2ccc(Cl)cc2C(c2ccccc2)=NC1O (stereo unspecified) | inactive |
| CNc1ccccc1C(=O)OC | inactive |
| O=c1c2[nH]c3ccccc3c2nnn1/N=C/c1ccc([N+](=O)[O-])cc1 | inactive |
| CSC[C@H](N)C(=O)O | inactive |
| CC(=O)Nc1ccc(/C=N/n2nnc3c([nH]c4ccccc43)c2=O)cc1 | inactive |
| CCn1cc(C(=O)O)c(=O)c2cc(F)c(N3CCNCC3)cc21 | active |
| [O-][Cl+]O | inactive |
| CC(=O)O | inactive |
| Cn1cccc1 | inactive |
| Nc1ccn([C@@H]2O[C@H](COP(=O)(O)O)[C@@H](O)[C@H]2O)c(=O)n1 | inactive |
| c1ccsc1 | inactive |
| O=C/C=C/C=C/C=O | inactive |

====

Tested on: CCRIS mutagenicity, Ames/micronucleus/aberration tests
assay comment: CCRIS mutagenicity studies
cond: Test System: AMES SALMONELLA TYPHIMURIUM; Strain/Indicator: TA100; Metabolic Activation: HAMSTER, LIVER, S-9, AROCLOR 1254 (10%); Method: PREINCUBATION
Active and inactive are the calls of the source. How the calls were made is not given here.
Outcome codes: active, inactive

| molecule | cat |
| --- | --- |
| C=C(C)C(=O)OCC(Br)CBr (configuration not stated) | active |
| Cc1ccccc1N | inactive |
| CNC[C@H](O)c1ccc(O)c(O)c1 | inactive |
| CCCCCCCCCCCC(=O)N(CCO)CCO | inactive |
| COc1ccc(N)cc1N | active |
| C(CCOCC1CO1)COCC1CO1 (configuration not stated) | active |
| CCCCCCCCC/C=C/CC1CC(=O)OC1=O (configuration not stated) | inactive |
| CCCN(CCC)S(=O)(=O)c1ccc(C(=O)O)cc1 | inactive |
| O=C(O)CNCP(=O)(O)O | inactive |
| Oc1c(Cl)ccc(Cl)c1Cl | inactive |
| CC(C)=CCC/C(C)=C/C=O | inactive |
| O=[N+]([O-])c1ccc(Nc2ccccc2O)c([N+](=O)[O-])c1 | active |
| Cl/C=C\Cl | inactive |
| Nc1ccccc1-c1ccccc1 | active |
| OCCBr | active |
| Cc1ccc(O)c(N)c1 | active |
| CC(C)(C)OOC(=O)c1ccccc1 | active |
| CC(=O)Oc1ccccc1C(=O)O | inactive |
| Cc1ccccc1N=Nc1ccc(N(C)C)cc1 | inactive |
| CC(O)c1ccccc1 (configuration not stated) | inactive |
| CCCCCCCCCCCCOS(=O)(=O)O | inactive |
| CCCCC(CC)CN (configuration not stated) | inactive |
| CNCCO | inactive |
| c1ccc(P(c2ccccc2)c2ccccc2)cc1 | inactive |
| CC(C)CON=O | active |
| COc1ccc(C(=O)c2ccccc2)c(O)c1 | inactive |
| ClC(Cl)(Cl)CC1CO1 (configuration not stated) | inactive |

====

Test system: CCRIS mutagenicity, Ames/micronucleus/aberration tests
assay comment: CCRIS mutagenicity studies
cond: Test System: AMES SALMONELLA TYPHIMURIUM; Strain/Indicator: TA97; Metabolic Activation: RAT, LIVER, S-9, AROCLOR 1254; Method: STANDARD PLATE
The source made the active and inactive calls. How the calls were made is not given here.

| compound | mutagenic call |
| --- | --- |
| CCNc1nc(Cl)nc(NCC)n1 | inactive; negative |
| C/C=C/c1cc(OC)c(OC)cc1OC | inactive; negative |
| O=C/C=C/C=C/C=O | active; positive |
| CC(=O)n1ccnc1 | inactive; negative |
| Nc1ccc(-c2ccccc2)cc1 | active; positive |
| O=C(CCl)NCO | inactive; negative |
| Oc1ccc(Cl)cc1 | active; positive |
| NC(=O)NCC(=O)O | inactive; negative |
| ClC1=C(Cl)[C@]2(Cl)[C@@H]3[C@H]4C[C@H]([C@@H]5O[C@H]45)[C@@H]3[C@@]1(Cl)C2(Cl)Cl | inactive; negative |
| COP(=O)(OC)SC | inactive; negative |
| CS(C)=O | inactive; negative |
| O=C(O)C[C@H](NC(=O)COc1ccc(Cl)cc1Cl)C(=O)O | inactive; negative |
| Oc1cccc(Cl)c1 | active; positive |
| Clc1ccc(N=Nc2ccc(Cl)c(Cl)c2)cc1Cl | inactive; negative |
| Oc1c(Cl)ccc(Cl)c1Cl | inactive; negative |
| CC(NC(=O)COc1ccc(Cl)cc1Cl)C(=O)O (stereo not drawn) | inactive; negative |
| CC(=O)Nc1ccc(O)cc1 | inactive; negative |
| [O-][N+](=Nc1ccc(Cl)c(Cl)c1)c1ccc(Cl)c(Cl)c1 | inactive; negative |
| [N-]=[N+]=[N-] | inactive; negative |
| O=C(O)COc1ccc(Cl)cc1 | inactive; negative |
| Cc1c(N(C)C)c(=O)n(-c2ccccc2)n1C | inactive; negative |
| CNCCCC(=O)O | inactive; negative |
| Cc1nc2c(c3[nH]c4ccccc4c13)C(=O)C(N1CC1)=CC2=O | active; positive |
